Molecular target: phosphor-EGFR in H1975(L585R/T790M) mutant EGFR expressing cells (Homo sapiens, UniProt P00533, L858R/T790M)
Sequence (P00533 25-1210 T790M/L858R): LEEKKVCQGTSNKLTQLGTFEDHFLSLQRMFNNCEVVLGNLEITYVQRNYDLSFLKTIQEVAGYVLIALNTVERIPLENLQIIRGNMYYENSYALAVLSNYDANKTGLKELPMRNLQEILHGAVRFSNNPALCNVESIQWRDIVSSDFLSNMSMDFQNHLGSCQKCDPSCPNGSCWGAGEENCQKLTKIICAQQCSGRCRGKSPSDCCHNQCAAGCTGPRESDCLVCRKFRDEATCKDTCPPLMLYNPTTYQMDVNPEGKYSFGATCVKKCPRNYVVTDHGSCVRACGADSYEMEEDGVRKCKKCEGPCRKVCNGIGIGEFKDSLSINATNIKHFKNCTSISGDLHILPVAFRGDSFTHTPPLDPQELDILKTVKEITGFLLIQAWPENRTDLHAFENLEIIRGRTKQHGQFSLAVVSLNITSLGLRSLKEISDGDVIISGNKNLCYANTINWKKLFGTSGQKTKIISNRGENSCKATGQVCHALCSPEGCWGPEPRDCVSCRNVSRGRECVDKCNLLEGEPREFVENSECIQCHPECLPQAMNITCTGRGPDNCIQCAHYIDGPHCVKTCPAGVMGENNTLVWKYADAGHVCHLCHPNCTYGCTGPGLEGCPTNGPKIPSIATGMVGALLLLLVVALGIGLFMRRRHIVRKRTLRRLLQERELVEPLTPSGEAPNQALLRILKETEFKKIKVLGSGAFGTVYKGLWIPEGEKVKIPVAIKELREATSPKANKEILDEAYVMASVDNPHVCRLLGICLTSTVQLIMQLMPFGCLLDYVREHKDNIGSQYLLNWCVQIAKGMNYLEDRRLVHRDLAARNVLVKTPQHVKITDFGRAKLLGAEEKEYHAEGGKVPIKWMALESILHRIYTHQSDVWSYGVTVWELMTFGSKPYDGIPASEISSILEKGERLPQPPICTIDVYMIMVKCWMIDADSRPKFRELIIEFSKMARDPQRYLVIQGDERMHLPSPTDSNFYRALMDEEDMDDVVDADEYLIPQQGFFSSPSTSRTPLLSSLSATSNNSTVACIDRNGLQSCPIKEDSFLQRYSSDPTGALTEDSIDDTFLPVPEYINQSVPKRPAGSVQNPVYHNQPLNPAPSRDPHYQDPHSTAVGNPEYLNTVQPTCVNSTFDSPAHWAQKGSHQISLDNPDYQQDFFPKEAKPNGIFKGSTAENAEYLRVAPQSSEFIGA
Experiment: H1975 pEGFR MSD cellular assay
Details: NCI-H1975 cells, serum starved, 1 hour compound incubation, pEGFR Tyr1068 MSD; read-out: HI975 pEGFR EC50
pEC50: −log10 of the molar value.
Quantity name: pEC50

// known answers, use as guide
The measured pEC50 associated with C[C@H](n1nc(N2CC[C@@H](O)C2)c2cnc(Nc3ccnc(N4CC[C@H](O)[C@H](F)C4)n3)cc21)C(F)(F)F (relative stereo) [Example 141] reads 7.05

The recorded pEC50 for entry CC(C)n1nc(N2CCOCC2)c2cnc(Nc3ccnc(NCC(C)(C)S(C)(=O)=O)n3)cc21 [Example 100] equals 5.98

Entry CC(C)n1nc(N2CCCC2=O)c2cnc(Nc3ccnc(N4CC[C@H](O)[C@H](F)C4)n3)cc21 (racemic) [Example 133] , pEC50 reported as 6.82

The value of pEC50 measured for the compound COC1CCN(c2nccc(Nc3cc4c(cn3)c(N3CC5(COC5)C3)nn4C(C)C)n2)CC1F (racemic) [Example 23] turned out to be 7.64

CCC(C)n1nc(N2CC[C@@H](O)C2)c2cnc(Nc3ccnc(N4CC[C@H](O)[C@H](F)C4)n3)cc21 (stereo partly shown) [Example 196] has a reported pEC50 of 7.90

A: CC[C@@H](C)n1nc(N2CC3(COC3)C2)c2cnc(Nc3ccnc(OCC(C)(C)S(C)(=O)=O)n3)cc21 [Example 96]
B: CC(C)n1nc(N2CCC(C(=O)N(C)C)C2)c2cnc(Nc3ccnc(-c4cnn(S(=O)(=O)C5CC5)c4)n3)cc21 (stereo not shown) [Example 156]
Please choose the item with the lower pEC50 value from this pair: A and B Mark your answer with the label of the selected entry. A
(A: 6.41, B: 7.41)

I: CCC(C)n1nc(N2CCN(C(=O)[C@@H](C)O)CC2)c2cnc(Nc3ccnc(-c4cnn(S(=O)(=O)C5CC5)c4)n3)cc21 (stereo partly shown) [Example 188]
II: CCC(C)n1nc(N2CC3(COC3)C2)c2cnc(Nc3ccnc(N4CC[C@@H](O)[C@@H](F)C4)n3)cc21 (single isomer, unassigned) [Example 198]
Of the two listed items, I and II , which carries the larger pEC50 figure? Output the label that corresponds to your choice. II
(II: 7.79, I: 7.19)

I: CCC(C)n1nc(N2C[C@H](O)[C@@H](F)C2)c2cnc(Nc3ccnc(N4CCC(C)(O)CC4)n3)cc21 (relative stereo) [Example 178]
II: CCC(C)n1nc(N2CCNC2=O)c2cnc(Nc3ccnc(N4CC[C@H](OC)[C@H](F)C4)n3)cc21 (mixture of isomers) [Example 98]
Input pair: I , II . Output: entry with lower pEC50. Let me know the label of the one you choose. I

a: CC1CN(c2nn(C(C)C)c3cc(Nc4ccnc(-c5cnn(S(=O)(=O)C6CC6)c5)n4)ncc23)C(=O)N1 (stereo not shown) [Example 108]
b: CCC(C)n1nc(N2CC(C(C)O)C2)c2cnc(Nc3ccnc(-c4cnn(S(=O)(=O)C5CC5)c4)n3)cc21 (stereo not shown) [Example 190]
Between the entries labeled a and b , whose measured pEC50 is lower? // return label of chosen record a
(a: 6.95, b: 7.35)
